# Test system: S. aureus 29213
# Format: cell-based, Staphylococcus aureus
# recordedConditions: 29213, 20 h
Peptide text beside a SMILES is read from it. * marks the point of attachment. Octanoyl = CCCCCCCC(=O)*
quantityMeasured: MICs, S. aureus 29213 (µM)
Your answer should be a plain number; it is taken to be in µM.

The compound CCCCCCCC(=O)NCCCC[C@H](NC(=O)[C@H](CC(C)C)NC(=O)[C@H](CCCCN)NC(=O)[C@H](CCCCN)NC(=O)[C@H](CC(C)C)NC(=O)[C@H](CCCCNC(=O)CCCCCCC)NC(=O)[C@H](CCCCN)NC(=O)[C@H](CCCCN)NC(=O)[C@H](CC(C)C)NC(=O)[C@H](CCCCN)NC(=O)[C@H](CCCCN)NC(=O)[C@H](CC(C)C)NC(=O)[C@@H](N)Cc1c[nH]c2ccccc12)C(=O)N[C@@H](CCCCN)C(=O)N[C@@H](CCCCN)C(=O)O [WL-C8] (H-WLKKLKKK(Octanoyl)LKKLK(Octanoyl)KK-OH) , tested on S. aureus 29213, showed MICs, S. aureus 29213 of 4

###

# System: E. faecalis 29212
# Type: cell-based, Enterococcus faecalis
# recordedConditions: 29212, 20 h
Peptide text beside a SMILES is read from it. * marks the point of attachment. Butyryl = CCCC(=O)*
quantityMeasured: MICs, E. faecalis 29212 (µM)
Your answer should be a plain number; it is taken to be in µM.

Reported MICs, E. faecalis 29212 of CCCC(=O)NCCCC[C@H](NC(=O)[C@H](CC(C)C)NC(=O)[C@H](CCCCN)NC(=O)[C@H](CCCCN)NC(=O)[C@H](CC(C)C)NC(=O)[C@H](CCCCNC(=O)CCC)NC(=O)[C@H](CCCCN)NC(=O)[C@H](CCCCN)NC(=O)[C@H](CC(C)C)NC(=O)[C@H](CCCCN)NC(=O)[C@H](CCCCN)NC(=O)[C@H](CC(C)C)NC(=O)[C@@H](N)Cc1c[nH]c2ccccc12)C(=O)N[C@@H](CCCCN)C(=O)N[C@@H](CCCCN)C(=O)O [WL-C4] (H-WLKKLKKK(Butyryl)LKKLK(Butyryl)KK-OH) : 32

###

# MICs, S. aureus 29213 per record follows
# System: S. aureus 29213
# Assay type: cell-based, Staphylococcus aureus
# recordedConditions: 29213, 20 h
# From the text: Escherichia coli ATCC25922, E. coli UB1005, Pseudomonas aeruginosa ATCC27853, Salmonella typhimurium ATCC14028, S. typhimurium C7731, Staphylococcus aureus ATCC29213, Methicillin-resistant S. aureus (MRSA) ATCC43300, S. epidermidis ATCC12228, and Enterococcus faecalis ATCC29212 were stored by the institute of animal nutrition, Northeast Agricultural University (Harbin, China). […]
Peptide text beside a SMILES is read from it. * marks the point of attachment. Hexanoyl = CCCCCC(=O)*; Butyryl = CCCC(=O)*
Your answer should be a plain number; it is taken to be in µM.

molecule | scaleUnit | MICs, S. aureus 29213
CCCCCC(=O)NCCCC[C@H](NC(=O)[C@H](CC(C)C)NC(=O)[C@H](CCCCN)NC(=O)[C@H](CCCCN)NC(=O)[C@H](CC(C)C)NC(=O)[C@H](CCCCNC(=O)CCCCC)NC(=O)[C@H](CCCCN)NC(=O)[C@H](CCCCN)NC(=O)[C@H](CC(C)C)NC(=O)[C@H](CCCCN)NC(=O)[C@H](CCCCN)NC(=O)[C@H](CC(C)C)NC(=O)[C@@H](N)Cc1c[nH]c2ccccc12)C(=O)N[C@@H](CCCCN)C(=O)N[C@@H](CCCCN)C(=O)O [WL-C6] (H-WLKKLKKK(Hexanoyl)LKKLK(Hexanoyl)KK-OH) | µM | 4

Proceed to the following item.
Reported MICs, S. aureus 29213 of CCCC(=O)NCCCC[C@H](NC(=O)[C@H](CC(C)C)NC(=O)[C@H](CCCCN)NC(=O)[C@H](CCCCN)NC(=O)[C@H](CC(C)C)NC(=O)[C@H](CCCCNC(=O)CCC)NC(=O)[C@H](CCCCN)NC(=O)[C@H](CCCCN)NC(=O)[C@H](CC(C)C)NC(=O)[C@H](CCCCN)NC(=O)[C@H](CCCCN)NC(=O)[C@H](CC(C)C)NC(=O)[C@@H](N)Cc1c[nH]c2ccccc12)C(=O)N[C@@H](CCCCN)C(=O)N[C@@H](CCCCN)C(=O)O [WL-C4] (H-WLKKLKKK(Butyryl)LKKLK(Butyryl)KK-OH) : 16

###

# Tested on: E. faecalis 29212
# Type: cell-based, Enterococcus faecalis
# recordedConditions: 29212, 20 h
Peptide text beside a SMILES is read from it. * marks the point of attachment. Octanoyl = CCCCCCCC(=O)*; Hexanoyl = CCCCCC(=O)*
# MICs, E. faecalis 29212 per record follows
Your answer should be a plain number; it is taken to be in µM.

compound | MICs, E. faecalis 29212 [µM]
CCCCCCCC(=O)NCCCC[C@H](NC(=O)[C@H](CC(C)C)NC(=O)[C@H](CCCCN)NC(=O)[C@H](CCCCN)NC(=O)[C@H](CC(C)C)NC(=O)[C@H](CCCCNC(=O)CCCCCCC)NC(=O)[C@H](CCCCN)NC(=O)[C@H](CCCCN)NC(=O)[C@H](CC(C)C)NC(=O)[C@H](CCCCN)NC(=O)[C@H](CCCCN)NC(=O)[C@H](CC(C)C)NC(=O)[C@@H](N)Cc1c[nH]c2ccccc12)C(=O)N[C@@H](CCCCN)C(=O)N[C@@H](CCCCN)C(=O)O [WL-C8] (H-WLKKLKKK(Octanoyl)LKKLK(Octanoyl)KK-OH) | 4

Proceed to the following item.
The compound CCCCCC(=O)NCCCC[C@H](NC(=O)[C@H](CC(C)C)NC(=O)[C@H](CCCCN)NC(=O)[C@H](CCCCN)NC(=O)[C@H](CC(C)C)NC(=O)[C@H](CCCCNC(=O)CCCCC)NC(=O)[C@H](CCCCN)NC(=O)[C@H](CCCCN)NC(=O)[C@H](CC(C)C)NC(=O)[C@H](CCCCN)NC(=O)[C@H](CCCCN)NC(=O)[C@H](CC(C)C)NC(=O)[C@@H](N)Cc1c[nH]c2ccccc12)C(=O)N[C@@H](CCCCN)C(=O)N[C@@H](CCCCN)C(=O)O [WL-C6] (H-WLKKLKKK(Hexanoyl)LKKLK(Hexanoyl)KK-OH) , tested on E. faecalis 29212, showed MICs, E. faecalis 29212 of 4

###

# MICs, E. coli UB1005 per record follows
# Tested on: E. coli UB1005
# Assay type: cell-based, Escherichia coli
# recordedConditions: UB1005, 20 h
Peptide text beside a SMILES is read from it. * marks the point of attachment. Decanoyl = CCCCCCCCCC(=O)*; Octanoyl = CCCCCCCC(=O)*; Hexanoyl = CCCCCC(=O)*; Butyryl = CCCC(=O)*
Your answer should be a plain number; it is taken to be in µM.

Take a look at these entries with their results.
compound | MICs, E. coli UB1005 / µM
CCCCCCCC(=O)NCCCC[C@H](NC(=O)[C@H](CC(C)C)NC(=O)[C@H](CCCCN)NC(=O)[C@H](CCCCN)NC(=O)[C@H](CC(C)C)NC(=O)[C@H](CCCCNC(=O)CCCCCCC)NC(=O)[C@H](CCCCN)NC(=O)[C@H](CCCCN)NC(=O)[C@H](CC(C)C)NC(=O)[C@H](CCCCN)NC(=O)[C@H](CCCCN)NC(=O)[C@H](CC(C)C)NC(=O)[C@@H](N)Cc1c[nH]c2ccccc12)C(=O)N[C@@H](CCCCN)C(=O)N[C@@H](CCCCN)C(=O)O [WL-C8] (H-WLKKLKKK(Octanoyl)LKKLK(Octanoyl)KK-OH) | 2
CCCC(=O)NCCCC[C@H](NC(=O)[C@H](CC(C)C)NC(=O)[C@H](CCCCN)NC(=O)[C@H](CCCCN)NC(=O)[C@H](CC(C)C)NC(=O)[C@H](CCCCNC(=O)CCC)NC(=O)[C@H](CCCCN)NC(=O)[C@H](CCCCN)NC(=O)[C@H](CC(C)C)NC(=O)[C@H](CCCCN)NC(=O)[C@H](CCCCN)NC(=O)[C@H](CC(C)C)NC(=O)[C@@H](N)Cc1c[nH]c2ccccc12)C(=O)N[C@@H](CCCCN)C(=O)N[C@@H](CCCCN)C(=O)O [WL-C4] (H-WLKKLKKK(Butyryl)LKKLK(Butyryl)KK-OH) | 4
CCCCCC(=O)NCCCC[C@H](NC(=O)[C@H](CC(C)C)NC(=O)[C@H](CCCCN)NC(=O)[C@H](CCCCN)NC(=O)[C@H](CC(C)C)NC(=O)[C@H](CCCCNC(=O)CCCCC)NC(=O)[C@H](CCCCN)NC(=O)[C@H](CCCCN)NC(=O)[C@H](CC(C)C)NC(=O)[C@H](CCCCN)NC(=O)[C@H](CCCCN)NC(=O)[C@H](CC(C)C)NC(=O)[C@@H](N)Cc1c[nH]c2ccccc12)C(=O)N[C@@H](CCCCN)C(=O)N[C@@H](CCCCN)C(=O)O [WL-C6] (H-WLKKLKKK(Hexanoyl)LKKLK(Hexanoyl)KK-OH) | 4

Reported MICs, E. coli UB1005 of CCCCCCCCCC(=O)NCCCC[C@H](NC(=O)[C@H](CC(C)C)NC(=O)[C@H](CCCCN)NC(=O)[C@H](CCCCN)NC(=O)[C@H](CC(C)C)NC(=O)[C@H](CCCCNC(=O)CCCCCCCCC)NC(=O)[C@H](CCCCN)NC(=O)[C@H](CCCCN)NC(=O)[C@H](CC(C)C)NC(=O)[C@H](CCCCN)NC(=O)[C@H](CCCCN)NC(=O)[C@H](CC(C)C)NC(=O)[C@@H](N)Cc1c[nH]c2ccccc12)C(=O)N[C@@H](CCCCN)C(=O)N[C@@H](CCCCN)C(=O)O [WL-C10] (H-WLKKLKKK(Decanoyl)LKKLK(Decanoyl)KK-OH) : 16
